Below: a set of entries, each annotated with reported % FERREDOXIN ACTIVITY.
Target: nitrogenase (Azotobacter vinelandii, UniProt P00459)
Construct: the nitrogenase sample was prepared from a culture of Azotobacter vinelandii; endogenous in cells; host or cells: Azotobacter vinelandii culture; French press lysate, 10,000 x g supernatant (crude)
Sequence (P00459 2-290 limits assumed): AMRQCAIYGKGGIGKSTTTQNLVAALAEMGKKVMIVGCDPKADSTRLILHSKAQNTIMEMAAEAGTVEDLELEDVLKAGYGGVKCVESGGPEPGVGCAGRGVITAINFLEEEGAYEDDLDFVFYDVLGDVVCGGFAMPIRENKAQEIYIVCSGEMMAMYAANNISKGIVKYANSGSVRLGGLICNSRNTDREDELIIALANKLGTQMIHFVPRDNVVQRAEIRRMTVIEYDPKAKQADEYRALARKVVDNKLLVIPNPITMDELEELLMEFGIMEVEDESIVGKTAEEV
Test: Chloroplast-coupled reduction of acetylene to ethylene by nitrogenase (electron carrier bioassay of Benemann)
Format: biochemical
Conditions: Table IV; acetylene reduction
Form entry: enter the amount, then its unit.

Worked examples follow.
CCCCc1c[n+](C)ccn1 [Compound 5000]; 0%
C[n+]1ccnc(CCS(=O)(=O)[O-])c1 [Compound 2600]; 98%
O=C(O)CC[n+]1ccncc1.[Br-] [Compound 800, 1-(2-Carboxyethyl)pyrazinium bromide]; 50%
C[n+]1ccnc2ccccc21 [Compound 5200]; 0%
C[n+]1ccnc(S(=O)(=O)[O-])c1 [Compound 2000]; 61%

Prompt: Quick one: % FERREDOXIN ACTIVITY for C[n+]1ccnc(C(O)CO)c1.[I-] (stereo not shown) [Compound 2200] ?
Completion: 55%

Prompt: Which % FERREDOXIN ACTIVITY is listed for CC(=O)NCCc1c[n+](C)ccn1.[I-] [Compound 3800] ?
Completion: 15%

Prompt: % FERREDOXIN ACTIVITY lookup needed for C=Cc1c[n+](C)ccn1 [Compound 5100] , thanks.
Completion: 13%

Prompt: # input compound: CCC(=O)Cc1c[n+](C)ccn1 [Compound 3500, 1-Methyl-3-(2-oxybutyl)pyrazinium iodide] ; wanted: its % FERREDOXIN ACTIVITY
Completion: 5%

Prompt: Entry C[n+]1ccnc(C(=O)O)c1 [Compound 4400] has what % FERREDOXIN ACTIVITY?
Completion: 0%

Prompt: Need % FERREDOXIN ACTIVITY, item CCC(Cc1c[n+](C)ccn1)S(=O)(=O)[O-] (stereo not shown) [Compound 1000]
Completion: 95%

---

Biological target: nitrogenase (Azotobacter vinelandii, UniProt P00459)
Construct: the nitrogenase sample was prepared from a culture of Azotobacter vinelandii; endogenous in cells; host or cells: Azotobacter vinelandii culture; French press lysate, 10,000 x g supernatant (crude)
Experiment: Chloroplast-coupled reduction of acetylene to ethylene by nitrogenase (electron carrier bioassay of Benemann)
Assay type: biochemical
Conditions: Table IV; acetylene reduction
Structures can show the parent of a compound that is named as a salt.
This listing pairs compounds with measured % FERREDOXIN ACTIVITY.

Recorded % FERREDOXIN ACTIVITY, per entry:
C[n+]1ccnc(C(CC(O)CO)CC(O)CO)c1 (stereo not shown) [Compound 1700]; 33%
C[n+]1ccnc(C(C)(C)[N+](=O)[O-])c1.[I-] [Compound 3700]; 31%
COC(=O)c1c[n+](C)ccn1 [Compound 4500]; 0%
CC(c1c[n+](C)ccn1)S(=O)(=O)[O-] (stereo not shown) [Compound 2400]; 105%
C[n+]1ccnc(CS(C)(=O)=O)c1 [Compound 4700]; 5%
C[n+]1ccnc(C(CCCS(=O)(=O)[O-])CCCS(=O)(=O)O)c1 (stereo not shown) [Compound 1800, sodium salt]; 124%

Query compound follows.
Prompt: May I ask what % FERREDOXIN ACTIVITY has been recorded for Cc1c[n+](CCCS(=O)(=O)[O-])c(C)cn1 [Compound 700] ?
Completion: 104%

---

Attribute: ACTIVITY RELATIVE TO FERREDOXIN (%)
Molecular target: nitrogenase (Azotobacter vinelandii)
Construct: the nitrogenase sample was prepared from a culture of Azotobacter vinelandii; endogenous in cells; host or cells: Azotobacter vinelandii culture; French press lysate, 10,000 x g supernatant (crude)
Experiment: Chloroplast-coupled reduction of acetylene to ethylene by nitrogenase (electron carrier bioassay of Benemann)
Type: biochemical
Conditions: Table I; acetylene reduction to ethylene
Express your answer in %, writing the number without its unit.

C[n+]1ccnc(C(=O)O)c1; 0

Prompt: Using the record for C[n+]1ccnc2ccccc21 , report its ACTIVITY RELATIVE TO FERREDOXIN (%).
Completion: 0

Prompt: Which ACTIVITY RELATIVE TO FERREDOXIN (%) value is on record for C[n+]1ccnc(CCO)c1.[I-] ?
Completion: 41

Prompt: Return reported ACTIVITY RELATIVE TO FERREDOXIN (%); argument: C[n+]1ccnc(CC(C(O)CO)S(=O)(=O)[O-])c1 (centres unmarked)
Completion: 110

Prompt: Data request, read-out ACTIVITY RELATIVE TO FERREDOXIN (%), for Cc1c[n+](C)cc(CO)n1.[I-]
Completion: 26

Prompt: Using the record for C[n+]1ccnc(CCCCS(=O)(=O)[O-])c1 , report its ACTIVITY RELATIVE TO FERREDOXIN (%).
Completion: 79

Prompt: Please look up its ACTIVITY RELATIVE TO FERREDOXIN (%): CC(=O)NCCc1c[n+](C)ccn1.[I-]
Completion: 15

Prompt: ACTIVITY RELATIVE TO FERREDOXIN (%) lookup needed for C[n+]1ccnc(C(O)CO)c1.[I-] (centres unmarked) , thanks.
Completion: 55

Prompt: Reported ACTIVITY RELATIVE TO FERREDOXIN (%), compound CCC(O)Cc1c[n+](C)ccn1.[I-] (centres unmarked) : ____
Completion: 20

Prompt: Look at this compound and give its reported ACTIVITY RELATIVE TO FERREDOXIN (%). CCCC(c1c[n+](C)ccn1)S(=O)(=O)[O-] (centres unmarked)
Completion: 107

Prompt: So what's the measured ACTIVITY RELATIVE TO FERREDOXIN (%) for this one? Cc1cnc(CS(=O)(=O)[O-])c[n+]1C
Completion: 98

Prompt: What does the record list as ACTIVITY RELATIVE TO FERREDOXIN (%) for C[n+]1ccnc(CCC(=O)O)c1.[I-] ?
Completion: 27

Prompt: Using the record for C[n+]1ccnc(C(C)(C)[N+](=O)[O-])c1.[I-] , report its ACTIVITY RELATIVE TO FERREDOXIN (%).
Completion: 31

Prompt: ACTIVITY RELATIVE TO FERREDOXIN (%) lookup needed for CCCCc1c[n+](C)ccn1 , thanks.
Completion: 0
